# Method description: Cytotoxicity against human MCF7/ADR cells after 48 hrs by MTT assay
# Format: functional, cell-based
# Conditions: NCI/ADR-RES
pIC50: −log10 of the molar value.
Recorded metric: pIC50

{"Line notation": "COC(=O)c1c2c(n3ccccc13)C(=O)c1cnncc1C2=O", "Recorded metric": "pIC50", "Measurement qualifier": "=", "Value measured": 4.77}
{"Line notation": "CC(=O)c1c2c(n3ccccc13)C(=O)c1cnncc1C2=O", "Recorded metric": "pIC50", "Measurement qualifier": "=", "Value measured": 4.95}
{"Line notation": "CCOC(=O)c1c2c(n3ccccc13)C(=O)c1cnncc1C2=O", "Recorded metric": "pIC50", "Measurement qualifier": "<", "Value measured": 4.60}
{"Line notation": "N#Cc1c2c(n3ccccc13)C(=O)c1cnncc1C2=O", "Recorded metric": "pIC50", "Measurement qualifier": "=", "Value measured": 6.09}
{"Line notation": "CCOC(=O)c1c2c(n3cccc(Cl)c13)C(=O)c1cnncc1C2=O", "Recorded metric": "pIC50", "Measurement qualifier": "=", "Value measured": 5.80}
{"Line notation": "CC(=O)c1c2c(n3cccc(F)c13)C(=O)c1cnncc1C2=O", "Recorded metric": "pIC50", "Measurement qualifier": "=", "Value measured": 4.88}
{"Line notation": "CCOC(=O)c1c2c(n3cccc(O)c13)C(=O)c1cnncc1C2=O", "Recorded metric": "pIC50", "Measurement qualifier": "<", "Value measured": 4.60}
{"Line notation": "CCOC(=O)c1c2c(n3cccc(C)c13)C(=O)c1cnncc1C2=O", "Recorded metric": "pIC50", "Measurement qualifier": "=", "Value measured": 5.81}
{"Line notation": "Cc1c2c(n3ccccc13)C(=O)c1cnncc1C2=O", "Recorded metric": "pIC50", "Measurement qualifier": "=", "Value measured": 4.85}
{"Line notation": "O=C1c2cnncc2C(=O)c2c1cc1ccccn21", "Recorded metric": "pIC50", "Measurement qualifier": "=", "Value measured": 4.93}
{"Line notation": "CCOC(=O)c1c2c(n3cc(C)ccc13)C(=O)c1cnncc1C2=O", "Recorded metric": "pIC50", "Measurement qualifier": "=", "Value measured": 4.73}

----------
Collected log10 of IC50 values appear next to each entry.
# Test system: MCF7
# Method description: Cytotoxicity against human MCF7 cells after 48 hrs by MTT assay
# Format: functional, cell-based
# Conditions: MCF7, 48 h
Recorded metric: log10 of IC50 (log10 of the value in µM)

{"Line notation": "N#Cc1c2c(n3ccccc13)C(=O)c1cnncc1C2=O", "log10 of IC50": 0.04}
{"Line notation": "COC(=O)c1c2c(n3ccccc13)C(=O)c1cnncc1C2=O", "log10 of IC50": 1.37}
{"Line notation": "CCOC(=O)c1c2c(n3cccc(Cl)c13)C(=O)c1cnncc1C2=O", "log10 of IC50": 0.08}
{"Line notation": "O=C1c2cnncc2C(=O)c2c1cc1ccccn21", "log10 of IC50": 1.17}
{"Line notation": "Cc1c2c(n3ccccc13)C(=O)c1cnncc1C2=O", "log10 of IC50": 0.22}
{"Line notation": "CCOC(=O)c1c2c(n3cccc(C)c13)C(=O)c1cnncc1C2=O", "log10 of IC50": 0.09}
{"Line notation": "CCOC(=O)c1c2c(n3cccc(O)c13)C(=O)c1cnncc1C2=O", "log10 of IC50": 1.32}
{"Line notation": "CCOC(=O)c1c2c(n3cc(C)ccc13)C(=O)c1cnncc1C2=O", "log10 of IC50": 1.09}
{"Line notation": "CC(=O)c1c2c(n3cccc(F)c13)C(=O)c1cnncc1C2=O", "log10 of IC50": 1.03}
